# test_target: human JAK1 (a.a. 837-1142)
# assay_overview: In vitro JAK kinase assay (HTRF, phosphorylation of a biotinylated peptide), JAK1
# Format: biochemical
# stated_conditions: ratio of JAK2 IC50 to JAK1 IC50, measured at 1 mM ATP
Categorized via IC50 Ratio JAK2/JAK1: class 0 (below 5), class 1 (5 to below 10), class 2 (10 or more)

- compound: "Cc1cc(NC(=O)N2CCC(N3CC(CC#N)(n4cc(-c5ncnc6[nH]ccc56)cn4)C3)CC2)n(C)n1"
  assigned_class: "class 0"
- compound: "N#CCC1(n2cc(-c3ncnc4[nH]ccc34)cn2)CN(C2CCN(C(=O)c3ccc(-c4ccc(C#N)cc4)c(F)c3)CC2)C1"
  assigned_class: "class 2"
- compound: "N#CCC1(n2cc(-c3ccnc4[nH]ccc34)cn2)CN(C2CCN(C(=O)Nc3ccc(C#N)cc3F)CC2)C1"
  assigned_class: "class 1"
- compound: "N#CCC1(n2cc(-c3ncnc4[nH]ccc34)cn2)CN(C2CCN(C(=O)OCc3ccccc3)CC2)C1"
  assigned_class: "class 1"
- compound: "CC1CC(N2CC(CC#N)(n3cc(-c4ncnc5[nH]ccc45)cn3)C2)CCN1Cc1c(F)cccc1Cl (centres unmarked) [Example 244]"
  assigned_class: "class 0"
- compound: "N#CCC1(n2cc(-c3ncnc4[nH]ccc34)cn2)CN(C2CCN(C(=O)c3ccc(-c4ccc(F)c(F)c4)c(F)c3)CC2)C1"
  assigned_class: "class 0"
- compound: "Cn1nccc1S(=O)(=O)N1CCC(N2CC(CC#N)(n3cc(-c4ncnc5[nH]ccc45)cn3)C2)CC1"
  assigned_class: "class 1"
- compound: "N#CCC1(n2cc(-c3c(C#N)cnc4[nH]ccc34)cn2)CN(C2CCN(C(=O)c3cc(Br)ccc3Br)CC2)C1"
  assigned_class: "class 0"

Q: Dear colleague, I would appreciate it if you could identify the bin for N#CCC1(n2cc(-c3ncnc4[nH]ccc34)cn2)CN(C2CCN(C(=O)c3cccc(C(F)(F)F)c3F)CC2)C1 and reply at your convenience.
A: class 2

====

# test_target: human JAK1 (a.a. 837-1142)
# assay_overview: In vitro JAK kinase assay (HTRF, phosphorylation of a biotinylated peptide), JAK1
# Assay type: biochemical
# stated_conditions: ratio of JAK2 IC50 to JAK1 IC50, measured at 1 mM ATP
# Experimental: Compounds herein were tested for inhibitory activity of JAK targets according to the following in vitro assay described in Park et al., Analytical Biochemistry 1999, 269, 94-104. […] The phosphorylated peptide was detected by homogenous time resolved fluorescence (HTRF). […] Binding to the Europium labeled antibody took place for 40 minutes and HTRF signal was measured on a Fusion plate reader (Perkin Elmer, Boston, Mass.).
Please use class 1 for IC50 Ratio JAK2/JAK1 under 5 and class 0 for everything else, ties included.

Worked examples, 5 compounds total:
- test_smiles: "N#CCC1(n2cc(-c3ncnc4[nH]ccc34)cn2)CN(C2CCN(C(=O)Nc3ccc(F)cc3F)CC2)C1"
  test_target: "human JAK1 (a.a. 837-1142)"
  assigned_class: "class 0"
- test_smiles: "N#CCC1(n2cc(-c3c(C#N)cnc4[nH]ccc34)cn2)CN(C2CCN(C(=O)c3ccnc(C(F)(F)F)c3F)CC2)C1"
  test_target: "human JAK1 (a.a. 837-1142)"
  assigned_class: "class 0"
- test_smiles: "N#CCC1(n2cc(-c3ncnc4[nH]ccc34)cn2)CN(C2CCN(C(=O)c3cccc4ccccc34)CC2)C1"
  test_target: "human JAK1 (a.a. 837-1142)"
  assigned_class: "class 1"
- test_smiles: "N#CCC1(n2cc(-c3ncnc4[nH]ccc34)cn2)CN(C2CCN(C(=O)c3ccnc(C(F)(F)F)c3)CC2)C1"
  test_target: "human JAK1 (a.a. 837-1142)"
  assigned_class: "class 1"
- test_smiles: "N#CCC1(n2cc(-c3ncnc4[nH]ccc34)cn2)CN(C2CCN(C(=O)c3ccccc3C#N)CC2)C1"
  test_target: "human JAK1 (a.a. 837-1142)"
  assigned_class: "class 1"

Next item in the queue.
Q: Bench note: check whether N#CCC1(n2cc(-c3ncnc4[nH]ccc34)cn2)CN(C2CCN(C(=O)c3cc(CN4CCC4)nc(C(F)(F)F)n3)CC2)C1 shows IC50 Ratio JAK2/JAK1 below 5
A: class 0

====

# test_target: human JAK1 (a.a. 837-1142)
# assay_overview: In vitro JAK kinase assay (HTRF, phosphorylation of a biotinylated peptide), JAK1
# Type: biochemical
# stated_conditions: ratio of JAK2 IC50 to JAK1 IC50, measured at 1 mM ATP
Structures can show the parent of a compound that is named as a salt.
property: IC50 Ratio JAK2/JAK1
Form: value (number only, do not type unit).

Some molecules with recorded IC50 Ratio JAK2/JAK1:
- molecule: "N#CCC1(n2cc(-c3ncnc4[nH]ccc34)cn2)CN(C2CCN(C(=O)Nc3cccc(Cl)c3F)CC2)C1 [Example 177]"
  measured: 8.5
- molecule: "N#CCC1(n2cc(-c3ncnc4[nH]ccc34)cn2)CN(C2CCN(Cc3c(F)ccc(Cl)c3F)CC2)C1 [Example 228]"
  measured: 3.9
- molecule: "N#CCC1(n2cc(-c3ncnc4[nH]ccc34)cn2)CN(C2CCN(C(=O)Nc3cccc(C(F)(F)F)c3F)CC2)C1 [Example 170]"
  measured: 6.9

Q: What value of IC50 Ratio JAK2/JAK1 has been recorded for this entry: N#CCC1(n2cc(-c3ncnc4[nH]ccc34)cn2)CN(C2CCN(C(=O)c3ccc(-c4ccc5cnccc5c4)c(F)c3)CC2)C1 [Example 115]
A: 15.7

Q: // lookup IC50 Ratio JAK2/JAK1 for CN(C)c1ccc(CN2CCC(N3CC(CC#N)(n4cc(-c5ncnc6[nH]ccc56)cn4)C3)CC2)c(F)c1C#N [Example 209]
A: 19.0

Q: Query: IC50 Ratio JAK2/JAK1; subject: N#CCC1(n2cc(-c3c(F)cnc4[nH]ccc34)cn2)CN(C2CCN(C(=O)c3ccc(O)c(F)c3)CC2)C1 [Example 322]
A: 4.7

Q: What does the record list as IC50 Ratio JAK2/JAK1 for N#CCC1(n2cc(-c3ncnc4[nH]ccc34)cn2)CN(C2CCN(C(=O)c3cc(CN4CCC(F)(F)C4)nc(C(F)(F)F)n3)CC2)C1 [Example 379, TFA] ?
A: 36.9

====

# test_target: human JAK1 (a.a. 837-1142)
# assay_overview: In vitro JAK kinase assay (HTRF, phosphorylation of a biotinylated peptide), JAK1
# Format: biochemical
# stated_conditions: ratio of JAK2 IC50 to JAK1 IC50, measured at 1 mM ATP
Structures can show the parent of a compound that is named as a salt.
Classify on IC50 Ratio JAK2/JAK1 using LOW (below 4), MID (4 to below 6), HIGH (6 or more)

Sample answers from the record:
- molecule: "N#CCC1(n2cc(-c3ncnc4[nH]ccc34)cn2)CN([C@@H]2CCN(C(=O)c3ccnc(C(F)(F)F)c3F)C[C@@H]2F)C1 (relative stereo)"
  assigned_class: "HIGH"
- molecule: "N#CCC1(n2cc(-c3ncnc4[nH]ccc34)cn2)CN(C2CCN(C(=O)c3c(F)cccc3C(F)(F)F)CC2)C1"
  assigned_class: "LOW"
- molecule: "N#CCC1(n2cc(-c3ncnc4[nH]ccc34)cn2)CN(C2CCN(C(=O)Nc3ccccc3F)CC2)C1"
  assigned_class: "MID"
- molecule: "N#CCC1(n2cc(-c3ncnc4[nH]ccc34)cn2)CN(C2CCN(C(=O)c3c(F)cc(F)cc3F)CC2)C1"
  assigned_class: "HIGH"
- molecule: "Cn1c(NC(=O)N2CCC(N3CC(CC#N)(n4cc(-c5ncnc6[nH]ccc56)cn4)C3)CC2)nc2ccccc21"
  assigned_class: "LOW"
- molecule: "COc1nc(CN2CCC(N3CC(CC#N)(n4cc(-c5ncnc6[nH]ccc56)cn4)C3)CC2)ccc1C#N"
  assigned_class: "LOW"
- molecule: "N#CCC1(n2cc(-c3ccnc4[nH]ccc34)cn2)CN(C2CCN(C(=O)Nc3ccc(C#N)cc3Cl)CC2)C1"
  assigned_class: "HIGH"
- molecule: "N#CCC1(n2cc(-c3ncnc4[nH]ccc34)cn2)CN(C2CCN(C(=O)c3cc(CN4CC[C@@H](F)C4)nc(C(F)(F)F)n3)CC2)C1 [Example 378, TFA]"
  assigned_class: "HIGH"

Q: Which band does CC1CC(N2CC(CC#N)(n3cc(-c4ncnc5[nH]ccc45)cn3)C2)CCN1C(=O)c1cccc(F)c1 (single isomer, unassigned) [Example 149] fall in?
A: MID

Q: Lab log: N#CCC1(n2cc(-c3ncnc4[nH]ccc34)cn2)CN(C2CCN(C(=O)c3ccccc3)CC2)C1 — assign IC50 Ratio JAK2/JAK1 category
A: LOW

Q: Lab note: which band did N#CCC1(n2cc(-c3ncnc4[nH]ccc34)cn2)CN(C2CCN(Cc3ccc4c(c3)OCCO4)CC2)C1 land in?
A: MID

Q: Which class does N#CCC1(n2cc(-c3ncnc4[nH]ccc34)cn2)CN(C2CCN(C(=O)c3cc(F)cc(Cl)c3)CC2)C1 fall in?
A: HIGH
